Organism: Rattus norvegicus
Test: Open TG-GATES - Regimen: Single
Format: toxicity, organism-based, Sprague-Dawley
Set-up: regimen Single, gender Male, age 6 weeks
Conditions: in vivo, po, 0 mg/kg, 3 h, tissue Blood, route gavage, dose level Control
Assignment: determine reported Bas for the given compounds.
A complete answer gives the number and then names the unit.

These recorded examples may help you get a feel for the data.
INSERT INTO results (compound, observed) VALUES
  ('O=C(O)c1cn(C2CC2)c2cc(N3CCNCC3)c(F)cc2c1=O', '0%'),
  ('O=C(O)c1cc(/N=N/c2ccc(S(=O)(=O)Nc3ccccn3)cc2)ccc1O', '0%'),
  ('Clc1ccccc1CN1CCc2sccc2C1', '0%');

Go through the list and state Bas for each entry.
1. CC(=O)Oc1ccccc1C(=O)O
2. CSc1ccc2c(c1)N(CCC1CCCCN1C)c1ccccc1S2 (stereo not given)

// result
1. 0.2%
2. 0%

---

Species: Rattus norvegicus
Experiment: Open TG-GATES - Regimen: Single
Assay type: toxicity, organism-based, Sprague-Dawley
Design: regimen Single, gender Male, age 6 weeks
Settings: in vivo, po, 0 mg/kg, 3 h, tissue Blood, route gavage, dose level Control
Outcome label depends on Ht relative to 40%: at/above gives YES, below gives NO.

Some solved cases for reference:
INSERT INTO measurements (compound, category_label) VALUES
  ('O=C(O)c1cc(/N=N/c2ccc(S(=O)(=O)Nc3ccccn3)cc2)ccc1O [SULFASALAZINE]', 'NO'),
  ('Clc1ccccc1CN1CCc2sccc2C1 [TICLOPIDINE]', 'NO');

Next compound, please.
// query Tell me whether Ht is at least 40% here: CCc1cc(C(N)=S)ccn1 [ETHIONAMIDE]
// result YES

---

Species on record: Rattus norvegicus
Assay: Open TG-GATES - Regimen: Single
Assay type: toxicity, organism-based, Sprague-Dawley
Set-up: regimen Single, gender Male, age 6 weeks
Conditions: in vivo, po, 1000 mg/kg, 6 h, tissue Blood, route gavage, dose level High
RESULT_TYPE: APTT (s)
Numbers only, in s.

These recorded examples may help you get a feel for the data.
INSERT INTO assay_data (compound, result_type, unit, observed) VALUES
  ('O=C(O)c1cc(/N=N/c2ccc(S(=O)(=O)Nc3ccccn3)cc2)ccc1O', 'APTT', 's', 18.8),
  ('CCc1cc(C(N)=S)ccn1 [ETHIONAMIDE]', 'APTT', 's', 18.3),
  ('Clc1ccccc1CN1CCc2sccc2C1', 'APTT', 's', 19.4);

// query Entry "C[C@H](CS)C(=O)N1CCC[C@H]1C(=O)O" has what APTT?
// result 16.5

---

Assignment: determine reported TBIL for the given compounds.
Organism: Rattus norvegicus
Assay: Open TG-GATES - Regimen: Single
Format: toxicity, organism-based, Sprague-Dawley
Design: regimen Single, gender Male, age 6 weeks
Settings: in vivo, po, 0 mg/kg, 9 h, tissue Plasma, route gavage, dose level Control
One number for each entry, in mg/dL.

These recorded examples may help you get a feel for the data.
INSERT INTO assay_data (compound, observed) VALUES
  ('C[C@H](CS)C(=O)N1CCC[C@H]1C(=O)O [CAPTOPRIL]', 0.4),
  ('Clc1ccccc1CN1CCc2sccc2C1 [TICLOPIDINE]', 0.1);

Go through the list and state TBIL for each entry.
1. NC(=O)N/N=C/c1ccc([N+](=O)[O-])o1 [NITROFURAZONE]
2. O=C(O)c1cc(/N=N/c2ccc(S(=O)(=O)Nc3ccccn3)cc2)ccc1O [SULFASALAZINE]
3. CSc1ccc2c(c1)N(CCC1CCCCN1C)c1ccccc1S2 (stereo not given) [THIORIDAZINE]

// result
1: 0.062; 2: 0.1; 3: 0.3

---

Organism: Rattus norvegicus
Assay: Open TG-GATES - Regimen: Daily Repeat
Type: toxicity, organism-based, Sprague-Dawley
Design: regimen Daily Repeat, gender Male, age 6 weeks
Details: in vivo, po, 0 mg/kg, […], tissue Plasma, route gavage, dose level Control, time 7 day
Outcome label depends on IP relative to 8 mg/dL: at/above gives Condition met, below gives Condition not met.

Some solved cases for reference:
INSERT INTO measurements (molecule, category_label) VALUES
  ('O=C(O)c1cc(/N=N/c2ccc(S(=O)(=O)Nc3ccccn3)cc2)ccc1O [SULFASALAZINE]', 'Condition not met'),
  ('COc1ccc2c(c1)c(CC(=O)O)c(C)n2C(=O)c1ccc(Cl)cc1 [INDOMETHACIN]', 'Condition met'),
  ('Cn1c(=O)c2[nH]cnc2n(C)c1=O.O [THEOPHYLLINE]', 'Condition not met'),
  ('CN(C)CCC=C1c2ccccc2CCc2ccccc21 [AMITRIPTYLINE]', 'Condition not met'),
  ('Clc1ccccc1CN1CCc2sccc2C1 [TICLOPIDINE]', 'Condition not met');

// query Tell me whether IP is at least 8 mg/dL here: COc1ccc(Cc2nccc3cc(OC)c(OC)cc23)cc1OC [PAPAVERINE]
// result Condition not met

// query Tell me whether IP is at least 8 mg/dL here: CCc1cc(C(N)=S)ccn1 [ETHIONAMIDE]
// result Condition not met

---

Species: Rattus norvegicus
Experiment: Open TG-GATES - Regimen: Daily Repeat
Type: toxicity, organism-based, Sprague-Dawley
Parameters: regimen Daily Repeat, gender Male, age 6 weeks
Conditions: in vivo, po, 0 mg/kg, 72 h, tissue Blood, route gavage, dose level Control, time 3 day
RESULT_TYPE: RBC (x10_4/ul)
Numbers only, in x10_4/ul.

These recorded examples may help you get a feel for the data.
INSERT INTO assay_data (compound, observed) VALUES
  ('O=C(O)c1cn(C2CC2)c2cc(N3CCNCC3)c(F)cc2c1=O', 595),
  ('CSc1ccc2c(c1)N(CCC1CCCCN1C)c1ccccc1S2 (stereo not given)', 631.6),
  ('CC(=O)Oc1ccccc1C(=O)O', 620),
  ('NC(=O)N/N=C/c1ccc([N+](=O)[O-])o1', 614.6);

Attention now turns to another entry.
// query Entry "COc1ccc2c(c1)c(CC(=O)O)c(C)n2C(=O)c1ccc(Cl)cc1" has what RBC?
// result 625.2

---

Species on record: Rattus norvegicus
Assay: Open TG-GATES - Regimen: Single
Type: toxicity, organism-based, Sprague-Dawley
Design: regimen Single, gender Male, age 6 weeks
Conditions: in vivo, po, 0 mg/kg, 9 h, tissue Blood, route gavage, dose level Control
RESULT_TYPE: PT (s)
Give bare numbers, in s.

INSERT INTO measurements (compound, unit, observed) VALUES
  ('Cn1c(=O)c2[nH]cnc2n(C)c1=O.O [THEOPHYLLINE]', 's', 15.8),
  ('Clc1ccccc1CN1CCc2sccc2C1 [TICLOPIDINE]', 's', 12.3),
  ('O=C(O)c1cn(C2CC2)c2cc(N3CCNCC3)c(F)cc2c1=O [CIPROFLOXACIN]', 's', 11.7),
  ('O=C(O)c1cc(/N=N/c2ccc(S(=O)(=O)Nc3ccccn3)cc2)ccc1O [SULFASALAZINE]', 's', 12.8),
  ('C[C@H](CS)C(=O)N1CCC[C@H]1C(=O)O [CAPTOPRIL]', 's', 12.2),
  ('COc1ccc(Cc2nccc3cc(OC)c(OC)cc23)cc1OC [PAPAVERINE]', 's', 15.6),
  ('CN(C)CCC=C1c2ccccc2CCc2ccccc21 [AMITRIPTYLINE]', 's', 15.2),
  ('NC(=O)N1c2ccccc2C=Cc2ccccc21 [CARBAMAZEPINE]', 's', 13.2),
  ('CCc1cc(C(N)=S)ccn1 [ETHIONAMIDE]', 's', 12.1),
  ('COc1ccc2c(c1)c(CC(=O)O)c(C)n2C(=O)c1ccc(Cl)cc1 [INDOMETHACIN]', 's', 12.5);

Go through the list and state PT for each entry.
1. NC(=O)N/N=C/c1ccc([N+](=O)[O-])o1 [NITROFURAZONE]
2. CSc1ccc2c(c1)N(CCC1CCCCN1C)c1ccccc1S2 (configuration not stated) [THIORIDAZINE]

// result
[14.5, 12.2]

---

Organism: Rattus norvegicus
Test: Open TG-GATES - Regimen: Single
Type: toxicity, organism-based, Sprague-Dawley
Parameters: regimen Single, gender Male, age 6 weeks
Details: in vivo, po, 0 mg/kg, 3 h, tissue Plasma, route gavage, dose level Control
Assignment: determine reported Ca for the given compounds.
Answers are plain numbers, in mg/dL.

Go through the list and state Ca for each entry.
1. NC(=O)N/N=C/c1ccc([N+](=O)[O-])o1 [NITROFURAZONE]
2. CSc1ccc2c(c1)N(CCC1CCCCN1C)c1ccccc1S2 (stereo not given) [THIORIDAZINE]

// result
11.3
11.4

Go through the list and state Ca for each entry.
1. O=C(O)c1cn(C2CC2)c2cc(N3CCNCC3)c(F)cc2c1=O [CIPROFLOXACIN]
2. CN(C)CCC=C1c2ccccc2CCc2ccccc21 [AMITRIPTYLINE]
3. Cn1c(=O)c2[nH]cnc2n(C)c1=O.O [THEOPHYLLINE]

// result
[10.8, 10.7, 10.5]
